# measured_target: CCR4 (Homo sapiens, UniProt P51679)
# Construct: CEM Cells Endogenous Express CCR4; endogenous in cells; host or cells: CEM cells
# Sequence (P51679 1-360): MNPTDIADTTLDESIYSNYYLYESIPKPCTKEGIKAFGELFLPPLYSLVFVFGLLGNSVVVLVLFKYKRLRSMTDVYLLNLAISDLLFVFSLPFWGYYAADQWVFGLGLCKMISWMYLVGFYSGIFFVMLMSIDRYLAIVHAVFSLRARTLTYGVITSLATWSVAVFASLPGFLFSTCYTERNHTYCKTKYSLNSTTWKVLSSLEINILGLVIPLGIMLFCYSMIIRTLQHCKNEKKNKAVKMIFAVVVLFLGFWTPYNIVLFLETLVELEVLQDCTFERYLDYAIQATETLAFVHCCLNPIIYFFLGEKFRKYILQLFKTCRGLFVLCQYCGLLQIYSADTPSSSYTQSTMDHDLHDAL
# assay: CEM cell chemotaxis (migration) assay to CCL22 (MDC) in 100% Fetal Bovine Serum (FBS)
# Type: cell-based
# condition_summary: CEM cells in 100% FBS with 1% HEPEs; recombinant human CCL22 0.1 nM; 37° C. 60 minutes
Below, each of the compounds is paired with its reported IC50 value.

Recorded IC50, per entry:
[
  {
    "compound": "C[C@@H](Nc1nc(N2CC[C@H](NC(=O)[C@H]3C[C@@H](O)CN3)[C@@H](O)C2)ncc1Cl)c1ccc(Cl)cc1Cl [Example 1.216]",
    "assay_result": "100 to 1000 nM"
  },
  {
    "compound": "C[C@@H](Nc1nc(N2CCC(NC(=O)[C@H]3CC(F)(F)CN3)CC2)ncc1Cl)c1ccc(Cl)cc1Cl [Example 1.136]",
    "assay_result": "> 1000 nM"
  },
  {
    "compound": "C[C@@H](Nc1nc(C2=CCN(C(=O)CN(C)C)CC2)ncc1Cl)c1ccc(Cl)cc1Cl [Example 1.020]",
    "assay_result": "< 100 nM"
  },
  {
    "compound": "C[C@@H](Nc1nc(N2CCN(C(=O)[C@H]3CCCN3)C(C)(C)C2)ncc1Cl)c1ccc(Cl)cc1Cl [Example 1.030]",
    "assay_result": "100 to 1000 nM"
  },
  {
    "compound": "C[C@@H](Nc1nc(N2CCN(C3CN[C@H](C(=O)O)C3)CC2)ncc1Cl)c1ccc(Cl)cc1Cl (stereo partly shown) [Example 1.153]",
    "assay_result": "> 1000 nM"
  },
  {
    "compound": "C[C@@H](Nc1nc(N2CCN(C(=O)C[C@H]3CCCN3)CC2)ncc1OC(F)F)c1ccc(Cl)cc1Cl [Example 1.166]",
    "assay_result": "< 100 nM"
  },
  {
    "compound": "COC[C@@H](N)C(=O)N1CCN(c2ncc(Cl)c(N[C@H](C)c3ccc(Cl)cc3Cl)n2)CC1 [Example 1.215]",
    "assay_result": "100 to 1000 nM"
  },
  {
    "compound": "C[C@@H](Nc1nc(N2CCN(C(=O)[C@H]3CC4(CC4)C(=O)N3)CC2)ncc1Cl)c1ccc(Cl)cc1Cl [Example 1.195]",
    "assay_result": "100 to 1000 nM"
  },
  {
    "compound": "CC(=O)N1CCC[C@@H]1C(=O)N1CCN(c2ncc(Cl)c(N[C@H](C)c3ccc(Cl)cc3Cl)n2)CC1 [Example 1.237]",
    "assay_result": "100 to 1000 nM"
  },
  {
    "compound": "Cc1cc(Cl)ccc1[C@@H](C)Nc1nc(N2CCN(C(=O)[C@H]3CCC(=O)N3)CC2)ncc1F [Example 1.089]",
    "assay_result": "100 to 1000 nM"
  }
]

Attention now shifts to the item below.
Query: Jot down IC50 (CCR4 (Homo sapiens, UniProt P51679)) of C[C@@H](Nc1nc(N2CC[C@@H](NC(=O)[C@H]3CCCN3)C2)ncc1Cl)c1ccc(Cl)cc1Cl [Example 1.015] .
Response: < 100 nM
